Reported melting point values for the following compounds.

IN: I am curious: what melting point value has been reported for O=C1Nc2ccc(Cl)cc2C(=O)Nc2ccccc21 [Compound 10a] ?
OUT: 275 to 276 °C

IN: // repeat for CN1C(=O)c2cc([N+](=O)[O-])ccc2NC(=O)c2ccccc21 [Compound 10f] and report
OUT: 225 to 226 °C

IN: Subsequent entry: O=C1Nc2ccc(Br)cc2C(=O)Nc2ccccc21 [Compound 10b]
OUT: 283 to 284 °C

IN: Another compound: CCOC(=O)CN1C(=O)c2ccccc2N(C)C(=O)c2ccccc21 [Compound 10n]
OUT: 125 to 126 °C

IN: Also, O=C1Nc2nccnc2C(=O)Nc2ccc(Cl)cc21 [Compound 10m] please.
OUT: 346 to 347 °C
